Test system: 755483-174-R-J1-PDC complex spheroid growth, percent test/control
Assay: Anticancer human tumor 755483-174-R-J1-PDC patient-derived rhabdomyosarcoma cell line growth inhibition [Asc]
Conditions: second compound 0.316 µM; first compound 0.00316 µM; stronger effect = lower value
Entries and their viability, T/C values follow.
attribute.measured: viability, T/C

compound="O=C(c1ccc(F)c(F)c1Nc1ccc(I)cc1F)N1CC(O)([C@@H]2CCCCN2)C1 + Cc1c(S(C)(=O)=O)c(-c2cc(F)cc(N3CCN(c4ccc(NS(=O)(=O)c5ccc(NC(CCN6CCC(C(=O)OCCCP(=O)(O)O)CC6)CSc6ccccc6)c(S(=O)(=O)C(F)(F)F)c5)cc4)CC3)c2)c(-c2ccc(Cl)cc2)n1C(C)C" experimental_value=41.9%
compound="NC1CCC(NC2CC2c2ccccc2)CC1 (stereo unspecified) + CNC(C)C(=O)NC1CN(S(=O)(=O)c2cccc(S(=O)(=O)N3CCC4CCC(C(=O)NC(c5ccccc5)c5ccccc5)N4C(=O)C(NC(=O)C(C)NC)C3)c2)CCC2CCC(C(=O)NC(c3ccccc3)c3ccccc3)N2C1=O" experimental_value=37.8%
compound="CNC(C)C(=O)NC1CN(S(=O)(=O)c2cccc(S(=O)(=O)N3CCC4CCC(C(=O)NC(c5ccccc5)c5ccccc5)N4C(=O)C(NC(=O)C(C)NC)C3)c2)CCC2CCC(C(=O)NC(c3ccccc3)c3ccccc3)N2C1=O (stereo unspecified) + Cc1c(S(C)(=O)=O)c(-c2cc(F)cc(N3CCN(c4ccc(NS(=O)(=O)c5ccc(NC(CCN6CCC(C(=O)OCCCP(=O)(O)O)CC6)CSc6ccccc6)c(S(=O)(=O)C(F)(F)F)c5)cc4)CC3)c2)c(-c2ccc(Cl)cc2)n1C(C)C" experimental_value=36.2%
compound="CCN1CCN(Cc2ccc(Nc3ncc(F)c(-c4cc(F)c5nc(C)n(C(C)C)c5c4)n3)nc2)CC1 + Cc1c(S(C)(=O)=O)c(-c2cc(F)cc(N3CCN(c4ccc(NS(=O)(=O)c5ccc(NC(CCN6CCC(C(=O)OCCCP(=O)(O)O)CC6)CSc6ccccc6)c(S(=O)(=O)C(F)(F)F)c5)cc4)CC3)c2)c(-c2ccc(Cl)cc2)n1C(C)C" experimental_value=41%
compound="Cn1ncnc1[C@H]1c2n[nH]c(=O)c3cc(F)cc(c23)N[C@@H]1c1ccc(F)cc1 + Cc1c(S(C)(=O)=O)c(-c2cc(F)cc(N3CCN(c4ccc(NS(=O)(=O)c5ccc(NC(CCN6CCC(C(=O)OCCCP(=O)(O)O)CC6)CSc6ccccc6)c(S(=O)(=O)C(F)(F)F)c5)cc4)CC3)c2)c(-c2ccc(Cl)cc2)n1C(C)C" experimental_value=34.7%
compound="O=C(c1ccc(F)c(F)c1Nc1ccc(I)cc1F)N1CC(O)([C@@H]2CCCCN2)C1 + CNC(C)C(=O)NC1CN(S(=O)(=O)c2cccc(S(=O)(=O)N3CCC4CCC(C(=O)NC(c5ccccc5)c5ccccc5)N4C(=O)C(NC(=O)C(C)NC)C3)c2)CCC2CCC(C(=O)NC(c3ccccc3)c3ccccc3)N2C1=O" experimental_value=35%

----------
Test system: 755483-174-R-J1-PDC complex spheroid growth, percent test/control
Experiment: Anticancer human tumor 755483-174-R-J1-PDC cell line growth inhibition [Asc];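 further: spheroids exposed to compounds for seven days before readout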
Details: curve of first compound; second compound 0.1 µM
attribute.measured: IC50

compound="C#Cc1c(F)ccc2cc(O)cc(-c3ncc4c(N5CC6CCC(C5)N6)nc(OCC56CCCN5CC(F)C6)nc4c3F)c12 (stereo not drawn) + CNC(C)C(=O)NC1CN(S(=O)(=O)c2cccc(S(=O)(=O)N3CCC4CCC(C(=O)NC(c5ccccc5)c5ccccc5)N4C(=O)C(NC(=O)C(C)NC)C3)c2)CCC2CCC(C(=O)NC(c3ccccc3)c3ccccc3)N2C1=O" attribute_measured=IC50 experimental_value="< 31.6 nM"
compound="Cc1nc(N2CCC3(CC2)COC(C)C3N)c(CO)nc1Sc1ccnc(N)c1Cl (stereo not drawn) + Cc1c(S(C)(=O)=O)c(-c2cc(F)cc(N3CCN(c4ccc(NS(=O)(=O)c5ccc(NC(CCN6CCC(C(=O)OCCCP(=O)(O)O)CC6)CSc6ccccc6)c(S(=O)(=O)C(F)(F)F)c5)cc4)CC3)c2)c(-c2ccc(Cl)cc2)n1C(C)C" attribute_measured=IC50 experimental_value="< 9.49 nM"
compound="NC1CCC(NC2CC2c2ccccc2)CC1 (stereo not drawn) + Cc1c(S(C)(=O)=O)c(-c2cc(F)cc(N3CCN(c4ccc(NS(=O)(=O)c5ccc(NC(CCN6CCC(C(=O)OCCCP(=O)(O)O)CC6)CSc6ccccc6)c(S(=O)(=O)C(F)(F)F)c5)cc4)CC3)c2)c(-c2ccc(Cl)cc2)n1C(C)C" attribute_measured=IC50 experimental_value="< 0.316 nM"
